Assign pEC50 to each entry below.
- Assay system: T1, human CDH6 on tumor cells (OVCAR3 cells, PA-1 cells) (human, UniProt P55285 54-790)
- T1 sequence: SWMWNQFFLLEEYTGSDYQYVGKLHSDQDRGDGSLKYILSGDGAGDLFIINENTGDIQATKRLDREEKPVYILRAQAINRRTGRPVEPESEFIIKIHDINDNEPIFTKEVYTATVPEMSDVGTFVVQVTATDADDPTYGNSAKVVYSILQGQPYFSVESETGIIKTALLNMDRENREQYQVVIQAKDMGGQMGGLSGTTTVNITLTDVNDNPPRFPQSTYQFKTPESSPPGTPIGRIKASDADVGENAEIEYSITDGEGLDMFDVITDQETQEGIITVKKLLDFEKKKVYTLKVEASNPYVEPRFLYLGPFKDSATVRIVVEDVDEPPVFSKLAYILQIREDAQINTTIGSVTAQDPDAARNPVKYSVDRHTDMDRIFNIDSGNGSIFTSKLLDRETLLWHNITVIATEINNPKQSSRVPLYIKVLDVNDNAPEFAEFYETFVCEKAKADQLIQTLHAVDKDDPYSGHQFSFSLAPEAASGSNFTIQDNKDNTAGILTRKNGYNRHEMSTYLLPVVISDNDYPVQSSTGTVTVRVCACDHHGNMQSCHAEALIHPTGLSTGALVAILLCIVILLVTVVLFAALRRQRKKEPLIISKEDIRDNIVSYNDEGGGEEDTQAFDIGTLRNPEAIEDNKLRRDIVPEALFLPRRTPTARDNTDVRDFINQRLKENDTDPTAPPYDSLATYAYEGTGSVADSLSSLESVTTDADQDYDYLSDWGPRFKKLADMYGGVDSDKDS
- Experiment description: FACS, PA-1 cells
Quick note: pEC50 means taking -log10 of the concentration in moles per liter.

Per the records, this binder ( hCDH6-14-H3L3 (antibody, V domains shown, Humanized) VH: EIQLVQSGAEVKKPGASVKVSCKASGYTFTDNYINWVRQAPGQRLEWMGWIYPGTGNSYYNEKFKGRVTLTVDTSASTAYMELSSLRSEDTAVYYCASSYGDSFDYWGQGTTVTVSS VL: DIVMTQSPDSLAVSLGERATINCRASQDIRNYLNWYQQKPGQTPKLLISYTSRLHSGVPDRFSGSGSGTDFTLTISSLQAEDVAVYYCQQYSQLPWTFGGGTKVEIK ) has pEC50 equal to 9.72

Per the records, this binder ( hCDH6-14-H3L2 (antibody, V domains shown, Humanized) VH: EIQLVQSGAEVKKPGASVKVSCKASGYTFTDNYINWVRQAPGQRLEWMGWIYPGTGNSYYNEKFKGRVTLTVDTSASTAYMELSSLRSEDTAVYYCASSYGDSFDYWGQGTTVTVSS VL: DIQMTQSPSSLSASVGDRVTITCRASQDIRNYLNWYQQKPGGAPKLLISYTSRLHSGVPSRFSGSGSGTDFTFTISSLQPEDIATYYCQQYSQLPWTFGGGTKVEIK ) has pEC50 equal to 9.64

Per the records, this binder ( hCDH6-14-H6L2 (antibody, V domains shown, Humanized) VH: EVQLVQSGAEVKKPGASVKVSCKASGYTFTDNYINWVRQAPGQRLEWMGWIYPGTGNSYYNEKFKGRVTITVDTSASTAYMELSSLRSEDTAVYLCASSYGDSFDYWGQGTTVTVSS VL: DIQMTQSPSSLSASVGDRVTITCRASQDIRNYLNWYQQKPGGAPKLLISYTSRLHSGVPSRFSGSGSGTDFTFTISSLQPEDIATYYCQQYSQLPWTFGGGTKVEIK ) has pEC50 equal to 9.59

Per the records, this binder ( hCDH6-14-H3L1 (antibody, V domains shown, Humanized) VH: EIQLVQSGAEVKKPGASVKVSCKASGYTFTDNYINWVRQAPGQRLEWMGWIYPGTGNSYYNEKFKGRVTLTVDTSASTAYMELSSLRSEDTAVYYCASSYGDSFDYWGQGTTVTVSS VL: DIQMTQSPSSLSASVGDRVTITCRASQDIRNYLNWYQQKPGKAFKLLISYTSRLHSGVPSRFSGSGSGTDFTFTISSLQPEDIATYYCQQYSQLPWTFGGGTKVEIK ) has pEC50 equal to 9.59

Per the records, this binder ( hCDH6-14-H6L1 (antibody, V domains shown, Humanized) VH: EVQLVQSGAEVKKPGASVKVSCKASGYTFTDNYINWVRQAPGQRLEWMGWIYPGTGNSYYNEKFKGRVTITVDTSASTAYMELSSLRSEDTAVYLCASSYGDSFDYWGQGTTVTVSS VL: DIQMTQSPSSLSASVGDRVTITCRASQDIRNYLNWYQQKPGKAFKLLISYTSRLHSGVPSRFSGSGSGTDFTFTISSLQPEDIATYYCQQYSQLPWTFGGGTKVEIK ) has pEC50 equal to 9.62

Per the records, this binder ( hCDH6-14-H2L2 (antibody, V domains shown, Humanized) VH: EIQLVQSGAEVKKPGASVKVSCKASGYTFTDNYINWVRQAPGQRLEWMGWIYPGTGNSYYNEKFKGRVTITVDTSASTAYMELSSLRSEDTAVYYCASSYGDSFDYWGQGTTVTVSS VL: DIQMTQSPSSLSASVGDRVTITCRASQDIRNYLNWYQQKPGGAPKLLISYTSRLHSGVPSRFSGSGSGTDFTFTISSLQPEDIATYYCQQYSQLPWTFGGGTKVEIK ) has pEC50 equal to 9.57

Per the records, this binder ( hCDH6-14-H6L3 (antibody, V domains shown, Humanized) VH: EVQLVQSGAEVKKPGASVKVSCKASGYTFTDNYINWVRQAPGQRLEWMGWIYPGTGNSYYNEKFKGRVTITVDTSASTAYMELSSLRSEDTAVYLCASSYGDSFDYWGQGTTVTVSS VL: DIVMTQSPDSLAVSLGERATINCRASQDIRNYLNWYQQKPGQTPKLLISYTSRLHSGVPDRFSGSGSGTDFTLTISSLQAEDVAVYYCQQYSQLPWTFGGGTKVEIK ) has pEC50 equal to 9.60

Per the records, this binder ( hCDH6-14-H2L1 (antibody, V domains shown, Humanized) VH: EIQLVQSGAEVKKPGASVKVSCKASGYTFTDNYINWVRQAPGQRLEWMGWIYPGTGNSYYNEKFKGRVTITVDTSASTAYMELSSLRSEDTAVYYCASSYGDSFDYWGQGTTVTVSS VL: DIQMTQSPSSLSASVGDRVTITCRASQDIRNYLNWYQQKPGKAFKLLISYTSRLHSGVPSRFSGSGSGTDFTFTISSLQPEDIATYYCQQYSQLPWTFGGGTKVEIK ) has pEC50 equal to 9.60

Per the records, this binder ( hCDH6-14-H5L3 (antibody, V domains shown, Humanized) VH: EVQLQQSGAEVKKPGASVKVSCKASGYTFTDNYINWVRQAPGQRLEWMGWIYPGTGNSYYNEKFKGRVTITVDTSASTAYMELSSLRSEDTAVYYCASSYGDSFDYWGQGTTVTVSS VL: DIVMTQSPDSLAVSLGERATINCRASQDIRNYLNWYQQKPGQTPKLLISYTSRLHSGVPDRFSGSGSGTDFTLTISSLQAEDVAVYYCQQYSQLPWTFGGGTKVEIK ) has pEC50 equal to 9.68

Per the records, this binder ( hCDH6-14-H4L1 (antibody, V domains shown, Humanized) VH: EVQLVQSGAEVKKPGASVKVSCKASGYTFTDNYINWVRQAPGQGLEWMGWIYPGTGNSYYNEKFKGRVTITVDTSASTAYMELSSLRSEDTAVYYCASSYGDSFDYWGQGTTVTVSS VL: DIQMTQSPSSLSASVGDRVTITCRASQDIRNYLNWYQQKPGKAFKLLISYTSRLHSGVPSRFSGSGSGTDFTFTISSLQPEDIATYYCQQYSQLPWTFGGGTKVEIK ) has pEC50 equal to 9.60
